Origin of the recorded values: the kinase profiling compilation of Christmann-Franck et al. (2016)

Target: UniProt O00750
Sequence (O00750 whole entry, looked up): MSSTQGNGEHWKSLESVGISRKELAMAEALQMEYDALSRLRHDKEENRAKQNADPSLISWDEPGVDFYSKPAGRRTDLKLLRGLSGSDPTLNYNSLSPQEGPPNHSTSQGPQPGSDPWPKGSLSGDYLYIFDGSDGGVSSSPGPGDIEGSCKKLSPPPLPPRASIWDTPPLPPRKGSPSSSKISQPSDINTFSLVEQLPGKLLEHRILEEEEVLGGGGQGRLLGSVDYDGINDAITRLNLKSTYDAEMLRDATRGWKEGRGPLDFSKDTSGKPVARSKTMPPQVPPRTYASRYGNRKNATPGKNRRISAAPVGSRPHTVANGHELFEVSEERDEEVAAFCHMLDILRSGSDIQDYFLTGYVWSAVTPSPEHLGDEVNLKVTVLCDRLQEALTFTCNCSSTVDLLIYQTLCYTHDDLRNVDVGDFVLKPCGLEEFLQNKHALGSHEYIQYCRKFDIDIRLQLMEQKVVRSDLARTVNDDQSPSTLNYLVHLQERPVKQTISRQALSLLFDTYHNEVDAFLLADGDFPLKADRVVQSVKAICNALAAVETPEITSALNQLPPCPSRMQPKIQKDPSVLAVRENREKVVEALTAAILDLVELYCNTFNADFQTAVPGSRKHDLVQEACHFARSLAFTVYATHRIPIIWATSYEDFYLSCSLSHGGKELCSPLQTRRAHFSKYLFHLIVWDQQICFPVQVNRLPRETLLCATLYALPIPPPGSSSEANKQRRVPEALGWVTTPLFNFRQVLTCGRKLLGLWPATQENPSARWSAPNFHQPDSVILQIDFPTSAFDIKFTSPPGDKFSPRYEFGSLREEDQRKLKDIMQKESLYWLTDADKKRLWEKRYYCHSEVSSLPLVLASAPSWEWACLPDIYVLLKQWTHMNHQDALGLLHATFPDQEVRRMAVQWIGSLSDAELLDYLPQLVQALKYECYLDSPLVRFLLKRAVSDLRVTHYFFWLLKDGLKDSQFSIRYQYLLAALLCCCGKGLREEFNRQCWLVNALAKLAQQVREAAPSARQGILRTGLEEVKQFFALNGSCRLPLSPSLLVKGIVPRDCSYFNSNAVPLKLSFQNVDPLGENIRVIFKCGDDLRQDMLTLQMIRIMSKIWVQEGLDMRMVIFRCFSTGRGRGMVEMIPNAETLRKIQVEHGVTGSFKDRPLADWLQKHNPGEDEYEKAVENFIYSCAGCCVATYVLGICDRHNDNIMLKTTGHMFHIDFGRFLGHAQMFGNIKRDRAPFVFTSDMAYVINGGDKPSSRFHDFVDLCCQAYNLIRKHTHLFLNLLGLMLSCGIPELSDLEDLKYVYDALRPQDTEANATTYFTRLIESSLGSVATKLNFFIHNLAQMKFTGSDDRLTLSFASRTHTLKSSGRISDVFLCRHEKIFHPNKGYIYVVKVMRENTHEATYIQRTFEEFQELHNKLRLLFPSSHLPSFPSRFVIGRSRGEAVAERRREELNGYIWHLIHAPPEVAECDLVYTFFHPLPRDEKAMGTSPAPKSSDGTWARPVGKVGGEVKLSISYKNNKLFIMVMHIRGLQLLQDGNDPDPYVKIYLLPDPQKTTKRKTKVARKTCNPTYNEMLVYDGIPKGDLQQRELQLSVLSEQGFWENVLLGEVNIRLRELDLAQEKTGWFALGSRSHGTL
Test: KINOMEscan competition binding
Conditions: compound 10.0 µM
recordedMetric: kinase still bound, per cent of control (%)
Expressed in %, but write only the number.

[in] Returns the measured kinase still bound, per cent of control for the input molecule. Input: `CCC(=O)N1CCN(c2ccc(-n3c(=O)ccc4cnc5ccc(-c6cnc7ccccc7c6)cc5c43)cc2C(F)(F)F)CC1`
[out] 25

[in] Similarly, `O=C(NOC[C@H](O)CO)c1ccc(F)c(F)c1Nc1ccc(I)cc1F` ?
[out] 100

[in] Similarly, `CCN1CCN(Cc2ccc(Nc3ncc4c(n3)N(C)c3ccccc3C(=O)N4C)cc2C(F)(F)F)CC1` ?
[out] 71

[in] Similarly, `Cc1ccc2nc(NCCN)c3ncc(C)n3c2c1` ?
[out] 100
